- CONDITIONS USED: in ethyl acetate, 315.65 K
VALUE KIND: solubility (mole fraction)
One number for each entry.

Record `Cc1c(C(=O)O)cccc1[N+](=O)[O-]` , field solubility (mole fraction): 0.054

====

- CONDITIONS USED: in ethanol, 293.15 K
VALUE KIND: solubility (mole fraction)
Numbers only.

The reported solubility (mole fraction) of the molecule `Cc1c(C(=O)O)cccc1[N+](=O)[O-]` was 0.0232

====

- CONDITIONS USED: in 1,4-dioxane, 290.65 K
VALUE KIND: solubility (mole fraction)
Numbers only.

So, `Cc1c(C(=O)O)cccc1[N+](=O)[O-]` ? Its solubility (mole fraction) was 0.0734
